Target: UniProt P29474
Sequence (P29474 whole entry): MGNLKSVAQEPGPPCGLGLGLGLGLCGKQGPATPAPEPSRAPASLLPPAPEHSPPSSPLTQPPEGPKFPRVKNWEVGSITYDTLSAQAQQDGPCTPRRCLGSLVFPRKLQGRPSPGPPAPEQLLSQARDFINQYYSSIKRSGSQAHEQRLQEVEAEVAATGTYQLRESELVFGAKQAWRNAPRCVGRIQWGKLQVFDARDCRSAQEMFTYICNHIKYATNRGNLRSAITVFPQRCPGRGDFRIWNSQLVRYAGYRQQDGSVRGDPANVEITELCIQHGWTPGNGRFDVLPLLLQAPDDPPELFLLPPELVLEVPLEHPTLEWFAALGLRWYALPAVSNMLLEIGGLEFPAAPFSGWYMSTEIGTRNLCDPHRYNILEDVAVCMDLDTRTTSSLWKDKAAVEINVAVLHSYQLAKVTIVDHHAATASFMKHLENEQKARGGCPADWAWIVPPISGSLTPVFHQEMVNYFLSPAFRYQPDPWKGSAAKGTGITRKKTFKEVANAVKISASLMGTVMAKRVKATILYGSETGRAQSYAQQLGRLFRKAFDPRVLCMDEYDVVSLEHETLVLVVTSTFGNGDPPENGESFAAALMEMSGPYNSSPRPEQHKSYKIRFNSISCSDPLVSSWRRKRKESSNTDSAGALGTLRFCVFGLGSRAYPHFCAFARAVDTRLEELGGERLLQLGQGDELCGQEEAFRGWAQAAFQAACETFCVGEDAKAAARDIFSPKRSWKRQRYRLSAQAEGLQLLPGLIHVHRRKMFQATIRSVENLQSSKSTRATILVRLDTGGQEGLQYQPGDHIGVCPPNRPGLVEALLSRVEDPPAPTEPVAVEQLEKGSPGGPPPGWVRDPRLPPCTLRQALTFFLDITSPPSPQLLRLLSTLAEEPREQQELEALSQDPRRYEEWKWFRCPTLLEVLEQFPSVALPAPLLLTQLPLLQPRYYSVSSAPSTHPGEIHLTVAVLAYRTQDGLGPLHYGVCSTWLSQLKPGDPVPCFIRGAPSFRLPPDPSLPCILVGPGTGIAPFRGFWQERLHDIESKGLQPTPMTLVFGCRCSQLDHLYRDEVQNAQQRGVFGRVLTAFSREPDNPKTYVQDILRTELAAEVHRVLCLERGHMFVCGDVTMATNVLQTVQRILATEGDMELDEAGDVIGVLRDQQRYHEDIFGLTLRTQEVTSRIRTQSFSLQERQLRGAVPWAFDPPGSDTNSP
pIC50: −log10 of the molar value.
Tick T if pIC50 is 5 or greater. Tick F if pIC50 is less than 5.

Ask: Please tell me: is the compound "COc1cccc(CN2CCC(Nc3nc4ccc(N=C(N)c5cccs5)cc4s3)CC2)c1" at or over 5 in terms of pIC50?
Reply: T

Ask: pIC50 >= 5 for CN1CCCC1CCNc1nc2cc(NC(=N)c3cccs3)ccc2s1 (racemic) ?
Reply: T

Ask: Check the entry "COc1ccc(CN2CCC(Nc3nc4ccc(N=C(N)c5cccs5)cc4s3)CC2)cc1" : does pIC50 equal or exceed 5?
Reply: T

Ask: Does the reported pIC50 for "N=C(Nc1ccc2sc(N)nc2c1)c1cccs1" fall at or above the 5 mark?
Reply: T

Ask: hey, is pIC50 for this one >= 5? "N=C(Nc1ccc2nc(NC3CCN(Cc4ccc(C(=O)O)cc4)CC3)sc2c1)c1cccs1"
Reply: F

Ask: // inclusive: pIC50 at least 5? input: "N=C(Nc1ccc2nc(NC3CCOCC3)sc2c1)c1cccs1"
Reply: F

Ask: Please check the record "NC(=Nc1ccc2sc(NC3CCN(Cc4ccccc4)CC3)nc2c1)c1cccs1" and state if its pIC50 is at or above 5.
Reply: F

Ask: Reported pIC50 at or above 5? "N=C(Nc1ccc2nc(NCCN3CCOCC3)sc2c1)c1cccs1"
Reply: T

Ask: Has "N=C(Nc1ccc2nc(N)sc2c1)c1cccs1" a recorded pIC50 greater than or equal to 5?
Reply: T

Ask: Please check the record "NC(=Nc1ccc2nc(NC3CCN(CCc4cnc[nH]4)CC3)sc2c1)c1cccs1" and state if its pIC50 is at or above 5.
Reply: T

Ask: Dear colleague, could you confirm whether "N=C(Nc1ccc2nc(NC3CCN(Cc4ccccc4)CC3)sc2c1)c1cccs1" has pIC50 at or above 5?
Reply: T
